# System: MS2 coat protein
# Measurement Description: apparent KD of MS2 coat protein; designed switch direction (-1 OFF switch, 1 ON switch): -1; higher = weaker reporter binding
# Condition Description: Eterna round: R95; input ligand: FMN 200 uM
Measure: apparent KD of MS2 coat protein

## Task Report apparent KD of MS2 coat protein for GAGGGACAUGAGGAUCACCCAUGUGAGGAUAUGGAGAGGAGGAGGGAGGAGGAGGAGGCCAGAAGGCGCAAGAA [THE BEST I guess] (puzzle: Exclusion 1)
## Result 22.6 nM

## Task Using known records, supply apparent KD of MS2 coat protein for GGUGCGUAUGUGAGGAUAUGCUGGUCCUUGGCUCGGCAGAAGGCACAUGAGGAUCACCCAUGUGGUGUCGUACG [salish99_Bmod_ex4_063] (puzzle: Brourd's mod of Exclusion 4)
## Result 249 nM

## Task Tell me apparent KD of MS2 coat protein reported for UUUAAAACAUAGGAUAUCGAAUAAAUCAUUUAACGAGAAGGAUGAACAUGAGGAUCACCCAUGUGGUAUCAUGG [Mat - Exclusion 6 - JL Mod - D20] (puzzle: Exclusion 6)
## Result 219 nM

## Task Determine from records and report apparent KD of MS2 coat protein for AGUACUAACACGAAAGUGUUAGUACAAUAAGCUUGUGAAACAUGAGGAUCACCCAUGUCCUCUUAAGCUCGUCUUAU [salish99_TOv2_r3_047] (puzzle: Sensor v3, turn-off variant 2)
## Result 116 nM

## Task For UUUUUCGAACAAGCUUCGUACAUGAGGAUCACCCAUGUCGGUAGAUUUGAGUAGGUUUGGAUGGAAGUUCGUCUUAU [JR_SV3TOV1_Sub086] (puzzle: Sensor v3, turn-off variant 1) , write its apparent KD of MS2 coat protein.
## Result 28.2 nM

* * *

# System: MS2 coat protein
# Measurement Description: apparent KD of MS2 coat protein; designed switch direction (-1 OFF switch, 1 ON switch): 1; higher = weaker reporter binding
# Condition Description: input ligand: none
Measure: apparent KD of MS2 coat protein
A bare number is not enough; add the unit after it.

## Task Lab note: MS2 coat protein assay, enter apparent KD of MS2 coat protein for GACUGCGUUAUGAAGGAUAUCCGCGUCUGGACAUGAGGAUCACCCAUGUAUACUUGGAUCGUGCAGGAGAAGGUCAAGGGUGAUU [JR_SS002_Sub1210] (Eterna round: R96, puzzle: Same State 2) here
## Result 243 nM

## Task // fetch apparent KD of MS2 coat protein for GAGGGCGAAAGCGACAUGAGGAUCACCCAUGUCCUCGGAGGACAGGAUAUCCGGCAAAAGCCGAAGGAGAAGGGUCGAAAAGAA [AK SSNG3-V2-37] (Eterna round: R96, puzzle: Same State NG 3) ; system: MS2 coat protein
## Result 136 nM

## Task State measured apparent KD of MS2 coat protein of the sequence GGAGCCAAGGCAGGAUAUUCAUACUAAUAACAUGAGGAUCACCCAUGUAAGGCCAGAAGGCCUUGGGAGAAGGGCCAUGGCUCG [Xeonanis - 13 mod3] (Eterna round: R96, puzzle: Same State NG 2) with MS2 coat protein.
## Result 86.7 nM

* * *

# Test system: MS2 coat protein
# Measurement Description: apparent KD of MS2 coat protein; designed switch direction (-1 OFF switch, 1 ON switch): -1; higher = weaker reporter binding
# Condition Description: input ligand: none
Measure: apparent KD of MS2 coat protein
In your response, the unit should come after the numeric value.

## Task Give measured apparent KD of MS2 coat protein for GAUGUUUAAGGAUAUACAAUGAAUGUAUGCCACAUGGAAAUACAUGAGGAUCACCCAUGUAGAAGGUAAGGGAU [Eternabot (L2) Solution 37] (Eterna round: R97, puzzle: Exclusion 2) (MS2 coat protein).
## Result 20.5 nM

## Task Lab note: record apparent KD of MS2 coat protein of UAAAGUAUAUAGGAUAUCUAGCUGGAUACAGCUAGAGAAGGAUGUACAUGAGGAUCACCCAUGUAAAUCAGUGA [Ex6/14-A3] (Eterna round: R97, puzzle: Exclusion 6) tested on MS2 coat protein.
## Result 16.5 nM

## Task Give apparent KD of MS2 coat protein for this entry on MS2 coat protein: GCACUGACAGGAUAUACAUGAGGAUCACCCAUGUGACCCUUAUAGUACUCGCGUACUAGUAGAAGGGUCUGUGC [Omei Ex3 Model Bachelor's Dilema v33] (Eterna round: R97, puzzle: Exclusion 3)
## Result 59.4 nM
